- Tested on: CDK4
- run conditions: Compound Concentration (nM):1000;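 also: KINOMEscan scanMAX binding as percent activity remaining versus control; lower means stronger binding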
readout type: Percent Control

Some entries whose results are on file:
Percent Control in this record for O=C1Nc2ccc(C(=O)c3ccco3)cc2C1=Cc1cc(Cl)c(O)c(Cl)c1 [GW406108X] : 94%

Percent Control in this record for Nc1ncnc2occ(-c3ccc(NC(=O)Nc4cc(C(F)(F)F)ccc4F)cc3)c12 [GW770249X] : 100%

Percent Control in this record for COc1ccccc1-c1cc(/C=C2\C(=O)Nc3ncc(Br)cc32)cc(Br)c1O [GW442130X] : 100%

Percent Control in this record for CN(C)c1cc2c(Nc3ccc4c(cnn4Cc4ccccc4)c3)ncnc2cn1 [GW282974X] : 89%

Percent Control in this record for CC1=C(C(=O)Nc2ccc3[nH]ncc3c2)C(c2ccc(Cl)c(Cl)c2)CC(=O)N1 (centres unmarked) [GSK299115A] : 80%

Provide reported Percent Control for each item, in the same order as listed.
1. CCc1ccc(Oc2nccc(-c3c(-c4ccc(F)cc4)ncn3C3CCNCC3)n2)cc1
2. CCS(=O)(=O)c1ccc(OC)c(Nc2ncc(-c3cccc(F)c3)o2)c1 [GW621970X]

1: 91%; 2: 100%

Percent Control in this record for CCn1c(-c2nonc2N)nc2c(C#CC(C)(C)O)nc(OCCNC)cc21.Cl : 100%

* * *

- System: EPHA4
- run conditions: Compound Concentration (nM):1000
readout type: Percent Control (%)
Give bare numbers, in %.

Some entries whose results are on file:
Percent Control in this record for COC(=O)Nc1nc2ccc(Oc3ccc(NC(=O)Nc4cc(C(F)(F)F)ccc4F)cc3)cc2s1.Cl [GW693917A] : 12

Percent Control in this record for CN(C)CCNC(=O)Nc1ccc(N(C)c2ccnc(Nc3ccc(CS(C)(=O)=O)cc3)n2)cc1.Cl [GW830900A] : 100

Provide reported Percent Control for each item, in the same order as listed.
1. NS(=O)(=O)c1ccc(N/N=C2\C(=O)Nc3ccc(Cl)cc32)cc1 [GW280670X]
2. COc1cc2ncnc(Nc3ccc4c(cnn4Cc4ccccc4)c3)c2cc1OC.Cl [GW282449A]
3. C/C(Nc1ccc(S(N)(=O)=O)cc1)=C1/C(=O)Nc2ccccc21 [GW335962X]
4. CCc1ccc(Oc2nccc(-c3c(-c4ccc(F)cc4)ncn3C3CCNCC3)n2)cc1
5. CN(C)c1cc2c(Nc3ccc4c(cnn4Cc4ccccc4)c3)ncnc2cn1 [GW282974X]
6. COc1ccc2c(-c3ccnc(Nc4cccc(OC(F)(F)F)c4)n3)cnn2n1 [GW810372X]

96
100
92
95
95
86

* * *

For each of the compounds below, state its Percent Control.
- System: FLT4
- run conditions: Compound Concentration (nM):1000
Answers are plain numbers, in %.

Form field Percent Control for item COc1ccc2cc(-c3c(-c4ccncc4)nc(-c4ccc(S(C)(=O)=O)cc4C)n3C)ccc2c1 [SB-633825] on FLT4: 54

Form field Percent Control for item CCn1c(-c2nonc2N)nc2c(C#CC(C)(C)O)nc(OCCNC)cc21.Cl [GSK949675] on FLT4: 75

Provide reported Percent Control for each item, in the same order as listed.
1. Nc1ncnc2occ(-c3ccc(NC(=O)Nc4cc(C(F)(F)F)ccc4F)cc3)c12 [GW770249X]
2. CCS(=O)(=O)c1ccc(OC)c(Nc2ncc(-c3cccc(OC)c3)o2)c1 [GW580509X]

0.7
13

Provide reported Percent Control for each item, in the same order as listed.
1. Cl.O=C(Nc1ccc(Oc2ccc3[nH]c(NC(=O)c4ccccc4)nc3c2)cc1)Nc1cc(C(F)(F)F)ccc1F [GW709042A]
2. O=C(Nc1n[nH]c2nc(-c3ccc(O)cc3)c(Br)cc12)C1CC1 [SB-725317]
3. Cl.O=C(O[C@H]1CN[C@H](C#Cc2cc3ncnc(Nc4ccc5c(cnn5Cc5ccccc5)c4)c3s2)C1)N1CCOCC1 [GSK200398A]
4. NS(=O)(=O)c1ccc(N/N=C2\C(=O)Nc3ccc(-c4cnco4)cc32)cc1 [GW276655]
5. COc1ccc2c(-c3ccnc(Nc4cccc(OC(F)(F)F)c4)n3)cnn2n1 [GW810372X]
6. COc1ccccc1-c1cc(/C=C2\C(=O)Nc3ncc(Br)cc32)cc(Br)c1O [GW442130X]
7. COc1cc2ncnc(Nc3ccc4c(cnn4Cc4ccccc4)c3)c2cc1OC.Cl [GW282449A]
8. COc1cc(/C=N/Nc2ncnc3[nH]ncc23)ccc1O [GW578748X]

[12, 84, 100, 67, 100, 96, 95, 100]

Provide reported Percent Control for each item, in the same order as listed.
1. NS(=O)(=O)c1ccc(Nc2ncc(-c3ccccc3)o2)cc1 [GW572399X]
2. COc1cccc(-c2c[nH]c3c(N/N=C/c4ccncc4)ncnc23)c1 [GW814408X]
3. CC1=C(C(=O)Nc2ccc3[nH]ncc3c2)C(c2ccc3ccccc3c2)CC(=O)N1 (centres unmarked) [GSK270822A]
4. Cc1cc(O)cc(C)c1/C=C/c1cncc(C(N)=O)c1 [GW435821X]
5. COc1cc(C)c(N(C)C(=O)CN(C)C)cc1Nc1nc(Nc2cccc(F)c2C(N)=O)c2cc[nH]c2n1 [GSK2219385]

[100, 90, 100, 100, 100]

* * *

- Test system: PRKX
- run conditions: Compound Concentration (nM):1000
For each of the molecules below, state its Percent Control.
Numbers only, in %.

Some entries whose results are on file:
Percent Control in this record for Cc1cc(O)cc(C)c1/C=C/c1cncc(C(N)=O)c1 [GW435821X] : 100

Percent Control in this record for Cl.O=C(O[C@H]1CN[C@H](C#Cc2cc3ncnc(Nc4ccc5c(cnn5Cc5ccccc5)c4)c3s2)C1)N1CCOCC1 [GSK200398A] : 77

Percent Control in this record for CC(C)COC(=O)c1ccc2c(c1)/C(=C/Nc1ccc(S(N)(=O)=O)cc1)C(=O)N2 [GW416981X] : 100

***
Percent Control in this record for NS(=O)(=O)c1ccc(N/N=C2\C(=O)Nc3ccc(C(=O)NCc4ccncc4)cc32)cc1 [GW300657X] : 94

* * *

- Test system: MKNK1
- run conditions: Compound Concentration (nM):1000
Returns one of true (1) or false (0); true (1) when Percent Control is >= 70%.

Decide: is the reported value of Percent Control for Nc1ncnc2occ(-c3ccc(NC(=O)Nc4cc(C(F)(F)F)ccc4F)cc3)c12 [GW770249X] equal to or greater than 70%?
false (0)

Decide: is the reported value of Percent Control for COc1ccc2[nH]c3c4[nH]c5ccc(OC)cc5c4c4c(c3c2c1)C(=O)NC4=O [GW296115X] equal to or greater than 70%?
true (1)

Decide: is the reported value of Percent Control for NS(=O)(=O)c1ccc(N/N=C2\C(=O)Nc3ccc(C(=O)NCc4ccncc4)cc32)cc1 [GW300657X] equal to or greater than 70%?
false (0)

Decide: is the reported value of Percent Control for Cl.c1ccc(Cc2nc3ccc(Nc4ncnc5ccccc45)cc3[nH]2)cc1 [GR269666A] equal to or greater than 70%?
true (1)

***
Decide: is the reported value of Percent Control for Cl.O=S1CCN(Cc2ccc(-c3ccc4ncnc(Nc5ccc(OCc6ccccc6)c(F)c5)c4c3)o2)CC1 [GW576924A] equal to or greater than 70%?
true (1)

Decide: is the reported value of Percent Control for CC1=C(C(=O)Nc2ccc3[nH]ncc3c2)C(c2ccc3ccccc3c2)CC(=O)N1 (stereo not shown) [GSK270822A] equal to or greater than 70%?
true (1)

Decide: is the reported value of Percent Control for CC1=C(C(=O)Nc2ccc3[nH]ncc3c2)C(c2ccc(Cl)c(Cl)c2)CC(=O)N1 (stereo not shown) [GSK299115A] equal to or greater than 70%?
true (1)

Decide: is the reported value of Percent Control for C/C(Nc1ccc(S(N)(=O)=O)cc1)=C1/C(=O)Nc2ccccc21 [GW335962X] equal to or greater than 70%?
true (1)

Decide: is the reported value of Percent Control for O=C(Nc1n[nH]c2nc(-c3ccc(O)cc3)c(Br)cc12)C1CC1 [SB-725317] equal to or greater than 70%?
false (0)

Decide: is the reported value of Percent Control for Cl.O=C(Nc1ccc(Oc2ccc3[nH]c(NC(=O)c4ccccc4)nc3c2)cc1)Nc1cc(C(F)(F)F)ccc1F [GW709042A] equal to or greater than 70%?
false (0)

Decide: is the reported value of Percent Control for COc1ccc2cc(-c3c(-c4ccncc4)nc(-c4ccc(S(C)(=O)=O)cc4C)n3C)ccc2c1 [SB-633825] equal to or greater than 70%?
false (0)

Decide: is the reported value of Percent Control for CN1CCN(C(=O)c2ccc(NC(=O)Nc3ccc(N(C)c4ccnc(Nc5ccc(CS(C)(=O)=O)cc5)n4)cc3)cc2)CC1.Cl [GW830263A] equal to or greater than 70%?
false (0)

Decide: is the reported value of Percent Control for COc1cc(C)c(N(C)C(=O)CN(C)C)cc1Nc1nc(Nc2cccc(F)c2C(N)=O)c2cc[nH]c2n1 [GSK2219385] equal to or greater than 70%?
true (1)

Decide: is the reported value of Percent Control for CCc1ccc(Oc2nccc(-c3c(-c4ccc(F)cc4)ncn3C3CCNCC3)n2)cc1 [SB-242719] equal to or greater than 70%?
true (1)

Decide: is the reported value of Percent Control for CCS(=O)(=O)c1ccc(OC)c(Nc2ncc(-c3cccc(OC)c3)o2)c1 [GW580509X] equal to or greater than 70%?
true (1)

Decide: is the reported value of Percent Control for NS(=O)(=O)c1ccc(Nc2ncc(-c3ccccc3)o2)cc1 [GW572399X] equal to or greater than 70%?
false (0)
